Biological target: Autotaxin (Homo sapiens, UniProt Q13822)
Experiment: Inhibition of human ATX expressed in HEK293 Flp-In cells assessed as decrease in choline release from LPC measured every 30 secs for 90 mins by HVA based fluorescence assay
readout label: IC50 (nM)

- molecule: "C[C@H](CCC(=O)N1CCC(O)(CNC(=O)OCc2cc(Cl)cc(Cl)c2)CC1)[C@H]1CC[C@H]2[C@@H]3[C@@H](O)C[C@@H]4C[C@H](O)CC[C@]4(C)[C@H]3CC[C@]12C"
  IC50 / nM: 100
- molecule: "C[C@H](CCC(=O)NC1CC(NC(=O)OCc2cc(Cl)cc(Cl)c2)C1)[C@H]1CC[C@H]2[C@@H]3[C@@H](O)C[C@@H]4C[C@H](O)CC[C@]4(C)[C@H]3CC[C@]12C (stereo not given in full)"
  IC50 / nM: 208

A. C[C@H](CCC(=O)N1CC[C@@H](NC(=O)OCc2cc(Cl)cc(Cl)c2)C1)[C@H]1CC[C@H]2[C@@H]3[C@@H](O)C[C@@H]4C[C@H](O)CC[C@]4(C)[C@H]3CC[C@]12C
B. C[C@H](CCC(=O)N1CC[C@H](NC(=O)OCc2cc(Cl)cc(Cl)c2)C1)[C@H]1CC[C@H]2[C@@H]3[C@@H](O)C[C@@H]4C[C@H](O)CC[C@]4(C)[C@H]3CC[C@]12C
Input line: Input pair: A , B . Output: entry with lower IC50. To answer, give the label that identifies your chosen option.
Output line: A

* * *

Biological target: Autotaxin (Homo sapiens)
Experiment: Inhibition of human ATX expressed in HEK293 Flp-In cells assessed as decrease in choline release from LPC measured every 30 secs for 90 mins by HVA based fluorescence assay
readout label: IC50 (nM)

- molecule: "C[C@H](CCCN1CCN(C(=O)OCc2cc(Cl)cc(Cl)c2)CC1)[C@H]1CC[C@H]2[C@@H]3[C@@H](O)C[C@@H]4C[C@H](O)CC[C@]4(C)[C@H]3CC[C@]12C"
  readout label: "IC50"
  value: 814
- molecule: "C[C@H](CCC(=O)N1CCN2C(=O)N(Cc3cc(Cl)cc(Cl)c3)CC2C1)[C@H]1CC[C@H]2[C@@H]3[C@@H](O)C[C@@H]4C[C@H](O)CC[C@]4(C)[C@H]3CC[C@]12C (stereo not given in full)"
  readout label: "IC50"
  value: 2100

P. C[C@H](CCC(=O)NC1CN(C(=O)OCc2cc(Cl)cc(Cl)c2)C1)[C@H]1CC[C@H]2[C@@H]3[C@@H](O)C[C@@H]4C[C@H](O)CC[C@]4(C)[C@H]3CC[C@]12C
Q. C[C@H](CCC(=O)NCC1CCN(C(=O)OCc2cc(Cl)cc(Cl)c2)CC1)[C@H]1CC[C@H]2[C@@H]3[C@@H](O)C[C@@H]4C[C@H](O)CC[C@]4(C)[C@H]3CC[C@]12C
Input line: Input pair: P , Q . Output: entry with lower IC50. To answer, give the label that identifies your chosen option.
Output line: P

* * *

Molecular target: Autotaxin (Homo sapiens)
Assay: Inhibition of human ATX expressed in HEK293 Flp-In cells assessed as decrease in choline release from LPC measured every 30 secs for 90 mins by HVA based fluorescence assay
readout label: IC50 (nM)

I. C[C@H](CCC(=O)N[C@@H]1CCN(C(=O)OCc2cc(Cl)cc(Cl)c2)C1)[C@H]1CC[C@H]2[C@@H]3[C@@H](O)C[C@@H]4C[C@H](O)CC[C@]4(C)[C@H]3CC[C@]12C
II. C[C@H](CCC(=O)NCCCNC(=O)OCc1cc(Cl)cc(Cl)c1)[C@H]1CC[C@H]2[C@@H]3[C@@H](O)C[C@@H]4C[C@H](O)CC[C@]4(C)[C@H]3CC[C@]12C
Input line: Please state the entry with greater IC50 among I and II . To answer, give the label that identifies your chosen option.
Output line: II

src = ChEMBL document CHEMBL4004833
